molecular target: cysteines in MDA-MB-231 and Ramos cells (Homo sapiens, UniProt P61978); assay: Competitive isoTOP-ABPP in situ (fragment-treated cells); type: cell-based; conditions: 200 μM, insitu, ramos

| cpd smiles | isoTOP-ABPP ratio P61978_C132 |
| --- | --- |
| C=CC(=O)N(Cc1cccnc1)c1cc(C(F)(F)F)cc(C(F)(F)F)c1 | 1.1 |
| O=C(CCl)N1CCN(S(=O)(=O)c2ccccc2F)CC1 | 1.6 |
| O=C(CCl)N1CCN(CC(=O)N2CCOCC2)CC1 | 1.2 |
| O=C(CCl)NCCc1c[nH]c2ccccc12 | 1.1 |

====

target: cysteines in MDA-MB-231 and Ramos cells (Homo sapiens, UniProt P23919); assay: Competitive isoTOP-ABPP in situ (fragment-treated cells); format: cell-based; conditions: 200 μM, insitu, 231
Sequence (P23919 whole entry, the tested form may be a part): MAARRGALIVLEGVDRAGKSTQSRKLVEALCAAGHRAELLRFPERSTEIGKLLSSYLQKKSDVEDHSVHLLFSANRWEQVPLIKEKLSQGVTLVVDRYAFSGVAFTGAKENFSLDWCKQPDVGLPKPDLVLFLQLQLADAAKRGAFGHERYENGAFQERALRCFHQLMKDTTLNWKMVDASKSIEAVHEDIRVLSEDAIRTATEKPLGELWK

| cpd smiles | experimental target | isoTOP-ABPP ratio P23919_C163 |
| --- | --- | --- |
| COc1ccccc1OCCNC(=O)CCl | cysteines in MDA-MB-231 and Ramos cells (Homo sapiens, UniProt P23919) | 0.4 |
| Cc1ccc(C=C(C#N)C(=O)NCCN2CCOCC2)cc1 | cysteines in MDA-MB-231 and Ramos cells (Homo sapiens, UniProt P23919) | 0.2 |
| CC(C)CCOCCNC(=O)CCl | cysteines in MDA-MB-231 and Ramos cells (Homo sapiens, UniProt P23919) | 0.2 |
| C=CC(=O)Nc1cc(F)c(N2CCN(C(=O)OC(C)(C)C)CC2)c(F)c1 | cysteines in MDA-MB-231 and Ramos cells (Homo sapiens, UniProt P23919) | 5.7 |

====

biological target: cysteines in MDA-MB-231 and Ramos cells (Homo sapiens, UniProt Q9BUH6); assay: Competitive isoTOP-ABPP in situ (fragment-treated cells); type: cell-based; conditions: 200 μM, insitu, 231
Sequence (Q9BUH6 whole entry, the tested form may be a part): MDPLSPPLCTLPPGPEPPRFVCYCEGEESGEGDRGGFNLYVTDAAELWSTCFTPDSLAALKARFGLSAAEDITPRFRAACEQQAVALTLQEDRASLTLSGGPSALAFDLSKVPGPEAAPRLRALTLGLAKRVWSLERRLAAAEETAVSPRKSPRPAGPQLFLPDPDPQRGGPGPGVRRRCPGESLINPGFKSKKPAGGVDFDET
Lab note: cut-off is 1. Strictly less in isoTOP-ABPP ratio Q9BUH6_C180 is 1.0. Exactly 1 or more is 0.0.

| compound | assigned category |
| --- | --- |
| O=C(CCl)N1CCN(S(=O)(=O)c2ccccc2F)CC1 [compound 10] | 0.0 |
| O=C(CCl)NC(=O)NC12CC3CC(CC(C3)C1)C2 [compound 12] | 0.0 |
| Cc1ccc(C=C(C#N)C(=O)NCCN2CCOCC2)cc1 [compound 41] | 1.0 |
| C=CC(=O)Nc1cc(F)c(N2CCN(C(=O)OC(C)(C)C)CC2)c(F)c1 [compound 38] | 0.0 |
| CC1CCc2ccccc2N1C(=O)CCl (centres unmarked) [compound 45] | 0.0 |
| O=C(CCl)NCCc1c[nH]c2ccccc12 [compound 13] | 0.0 |
| COc1ccccc1OCCNC(=O)CCl [compound 28] | 0.0 |
| C=CC(=O)N(Cc1cccnc1)c1cc(C(F)(F)F)cc(C(F)(F)F)c1 [compound 31] | 1.0 |

====

target: cysteines in MDA-MB-231 and Ramos cells (Homo sapiens, UniProt Q9NWA0); assay: Competitive isoTOP-ABPP in situ (fragment-treated cells); format: cell-based; conditions: 200 μM, insitu, 231
Sequence (Q9NWA0 whole entry, the tested form may be a part): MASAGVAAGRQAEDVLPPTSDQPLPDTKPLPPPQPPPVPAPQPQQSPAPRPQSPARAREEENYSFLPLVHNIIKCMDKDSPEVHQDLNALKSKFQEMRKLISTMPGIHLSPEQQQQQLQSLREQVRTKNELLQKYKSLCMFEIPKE
Each record here notes measured isoTOP-ABPP ratio, cysteine Q9NWA0_C139.
parameter measured: isoTOP-ABPP ratio, cysteine Q9NWA0_C139

| compound | parameter measured | value measured |
| --- | --- | --- |
| O=C(CCl)NC12CC3CC(CC(C3)C1)C2 [compound 21] | isoTOP-ABPP ratio, cysteine Q9NWA0_C139 | 1.5 |
| O=C(CCl)N1CCN(S(=O)(=O)c2ccccc2F)CC1 [compound 10] | isoTOP-ABPP ratio, cysteine Q9NWA0_C139 | 2.9 |
| O=C(CCl)NC(=O)NC12CC3CC(CC(C3)C1)C2 [compound 12] | isoTOP-ABPP ratio, cysteine Q9NWA0_C139 | 20.0 |
| O=C(CCl)NCCc1c[nH]c2ccccc12 [compound 13] | isoTOP-ABPP ratio, cysteine Q9NWA0_C139 | 1.1 |
